B1: FBXO3 (parent)
chain: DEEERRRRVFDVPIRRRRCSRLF

variants of: B1; test: protein stability index of a GFP-peptide fusion (GPS, HEK-293T) (PSI 1-6); higher = more stable; details: c terminus: native;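 also: lentivirally expressed fusions sorted by FACS into six bins by GFP to DsRed ratio, PSI derived from sequencing read proportions per bin multiplied by bin number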
Entries and their protein stability index values follow.
In your answer, state the number alone without any accompanying words.

Example entries begin here.
{"MUTATION ID": "V9W", "protein stability index": 2.94}
{"MUTATION ID": "P13H", "protein stability index": 2.95}
{"MUTATION ID": "D1H", "protein stability index": 1.87}
{"MUTATION ID": "R21V", "protein stability index": 2.98}
{"MUTATION ID": "S20M", "protein stability index": 2.04}
{"MUTATION ID": "E3P", "protein stability index": 2.32}
{"MUTATION ID": "V12I", "protein stability index": 2.32}
{"MUTATION ID": "R15Y", "protein stability index": 1.88}
{"MUTATION ID": "D11R", "protein stability index": 2.25}
{"MUTATION ID": "E2N", "protein stability index": 3.05}

Asked: Please report the recorded protein stability index for R5P .
Given back: 3.3

Asked: Please report the recorded protein stability index for L22Y .
Given back: 2.63

Asked: Please report the recorded protein stability index for R8N .
Given back: 3.35

Asked: Please report the recorded protein stability index for E3I .
Given back: 1.99

Asked: Please report the recorded protein stability index for E3S .
Given back: 1.91

Asked: Please report the recorded protein stability index for R15S .
Given back: 2.39

Asked: Please report the recorded protein stability index for P13S .
Given back: 2.23

Asked: Please report the recorded protein stability index for P13Q .
Given back: 2.2

Asked: Please report the recorded protein stability index for R17Y .
Given back: 1.58

Asked: Please report the recorded protein stability index for F10A .
Given back: 4.88

Asked: Please report the recorded protein stability index for D1N .
Given back: 2.05

Asked: Please report the recorded protein stability index for R18M .
Given back: 2.31
